Consider the following binders and their measured LogAUC readings.
- study.system: CH505.M19D8gp120
- method.description: ELISA
Just the number, please.

Study these solved cases before continuing.
CH236 (antibody, V domains shown, also called CH236_4A/293i) VH: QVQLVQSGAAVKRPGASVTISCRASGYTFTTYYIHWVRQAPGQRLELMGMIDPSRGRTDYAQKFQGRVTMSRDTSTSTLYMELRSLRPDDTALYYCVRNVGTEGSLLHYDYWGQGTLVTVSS VL: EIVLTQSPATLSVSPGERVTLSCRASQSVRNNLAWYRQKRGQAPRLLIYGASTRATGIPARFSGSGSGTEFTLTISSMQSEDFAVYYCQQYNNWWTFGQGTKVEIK :: 1.54
CH557 (antibody, V domains shown, also called CH235.12; CH557_4A/293i) VH: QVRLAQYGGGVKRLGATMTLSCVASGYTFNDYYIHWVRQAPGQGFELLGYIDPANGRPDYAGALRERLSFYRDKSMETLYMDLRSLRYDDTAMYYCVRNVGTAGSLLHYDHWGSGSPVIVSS VL: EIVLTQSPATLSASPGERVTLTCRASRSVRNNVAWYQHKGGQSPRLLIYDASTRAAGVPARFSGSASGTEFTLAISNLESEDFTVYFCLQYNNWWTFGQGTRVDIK :: 4.61
CH241 (antibody, V domains shown) VH: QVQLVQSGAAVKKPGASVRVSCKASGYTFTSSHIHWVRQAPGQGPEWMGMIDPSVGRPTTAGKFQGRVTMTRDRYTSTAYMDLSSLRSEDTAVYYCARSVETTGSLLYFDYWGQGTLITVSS VL: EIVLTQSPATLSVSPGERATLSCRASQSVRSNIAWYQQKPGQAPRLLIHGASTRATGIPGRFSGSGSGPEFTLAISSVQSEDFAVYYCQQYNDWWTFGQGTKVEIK :: 10.4
CH235.13 (antibody, V domains shown) VH: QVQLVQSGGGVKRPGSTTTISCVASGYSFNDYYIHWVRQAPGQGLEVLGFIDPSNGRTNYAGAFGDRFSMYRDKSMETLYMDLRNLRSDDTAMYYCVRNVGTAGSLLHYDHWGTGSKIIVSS VL: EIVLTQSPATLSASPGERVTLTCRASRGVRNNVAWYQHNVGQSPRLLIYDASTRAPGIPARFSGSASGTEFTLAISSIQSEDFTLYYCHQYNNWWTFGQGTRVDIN :: 2.89

Need LogAUC of CH493 (antibody, V domains shown, also called CH235.9; DH493) VH: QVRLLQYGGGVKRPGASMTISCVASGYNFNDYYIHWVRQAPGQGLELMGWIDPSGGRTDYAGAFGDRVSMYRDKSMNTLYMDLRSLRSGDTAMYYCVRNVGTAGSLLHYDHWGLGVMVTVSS VL: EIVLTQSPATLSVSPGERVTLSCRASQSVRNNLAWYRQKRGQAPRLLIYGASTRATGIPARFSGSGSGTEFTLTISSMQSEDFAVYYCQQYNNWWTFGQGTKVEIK , thanks.
5.95
